- protocol-details: Cell viability by MTT reduction
- condition-label: mouse, RAW 264.7 macrophages
outcome-measure: viability at 24 h, 100 µM (%)
Dear colleague, please return just the value in %, with no unit written.

{"columns": ["compound", "u", "viability at 24 h, 100 µM"],
 "data": [
  ["COc1cc([C@H]2OC[C@H]3[C@@H]2CO[C@@H]3c2ccc3c(c2)OCO3)ccc1O[C@@H]1O[C@H](CO)[C@@H](O)[C@H](O)[C@H]1O [Compound 9, simlexoside]", "%", 54.5]
]}

### Prompt If you can, please state the reported viability at 24 h, 100 µM value of COc1cc(OC)cc([C@@H](O)[C@H]2COC[C@@H]2Cc2ccc(O)c(O)c2)c1 [Compound 1] .
### Response 84.8

### Prompt Another compound: COc1cc([C@H]2OC[C@H]3[C@@H]2CO[C@@H]3c2ccc3c(c2)OCO3)ccc1O [Compound 7, (+)-xanthoxylol]
### Response 88.4

### Prompt Another compound: COc1cc([C@H]2OC[C@@H]3[C@H]2CO[C@H]3c2ccc3c(c2)OCO3)ccc1O [Compound 6, (+)-piperitol]
### Response 84.1

### Prompt Another compound: O=C1OC[C@H](Cc2ccc3c(c2)OCO3)[C@H]1Cc1ccc2c(c1)OCO2 [Compound 3, (−)-hinokinin]
### Response 50.2

# credit: paper PMC6270163
